The compounds listed here are annotated with their inhibition at 10 µM.
- Tested on: Corticosterone generation
- Test method notes: Assessment test of steroid hormone synthesis inhibition (Corticosterone generation in rat adrenal gland cells)
- Format: cell-based
- Stated conditions: 10 μM test article, rat adrenal cells with cAMP, 2 hours, read-out: Steroid Synthesis Inhibition Rate (%) (10 μM)
Property: inhibition at 10 µM (%)

compound="CNC(=O)NCCn1c(-c2ccc(C(=O)N3CCOCC3)cc2)cs/c1=N\\c1cccc(F)c1 [Example 52]" property="inhibition at 10 µM" value_unit=% result_number=0
compound="CNC(=O)NCCn1c(-c2ccc(CN3CCOCC3)c(OC)c2)cs/c1=N\\c1ccc(F)c(C)c1 [Example 21]" property="inhibition at 10 µM" value_unit=% result_number=8
compound="CCNC(=O)NCCn1c(-c2ccc(C(=O)N3CCOCC3)cc2)cs/c1=N\\c1cccc(Cl)c1 [Example 59]" property="inhibition at 10 µM" value_unit=% result_number=7
compound="CCNC(=O)c1ccc(-c2cs/c(=N\\c3ccc(F)c(F)c3)n2CCNC(=O)NC)cc1 [Example 62]" property="inhibition at 10 µM" value_unit=% result_number=2
compound="CNC(=O)NCCn1c(-c2ccc(CN3CCOCC3)cc2C)cs/c1=N\\c1ccc(F)c(C)c1 [Example 18]" property="inhibition at 10 µM" value_unit=% result_number=28
compound="CCNC(=O)c1ccc(-c2cs/c(=N\\c3ccc(F)cc3)n2CCNC(=O)NC)cc1 [Example 61]" property="inhibition at 10 µM" value_unit=% result_number=6

###

- Test system: rat lung membrane SMBS
- Test method notes: Receptor-binding assessment test using rat lung membranes ([125I]-iodocyanopindolol ligand binding assay)
- Stated conditions: 1 μM test compound; ratio of inhibiting specific binding of [125I]-iodocyanopindolol to rat lung membrane SMBS
// 0 strictly below 70% in Binding Activity (%) (1 μM); 1 otherwise

compound="CCNC(=O)c1ccc(-c2cs/c(=N\\c3ccc(F)c(F)c3)n2CCNC(=O)NC)cc1 [Example 62]" tested_system="rat lung membrane SMBS" answer_label=0
compound="CCNC(=O)c1ccc(-c2cs/c(=N\\c3ccc(F)cc3)n2CCNC(=O)NC)cc1 [Example 61]" tested_system="rat lung membrane SMBS" answer_label=0
compound="CCNC(=O)NCCn1c(-c2ccc(C(=O)N3CCOCC3)cc2)cs/c1=N\\c1cccc(Cl)c1 [Example 59]" tested_system="rat lung membrane SMBS" answer_label=0
compound="CNC(=O)NCCn1c(-c2ccc(CN3CCOCC3)cc2C)cs/c1=N\\c1ccc(F)c(C)c1 [Example 18]" tested_system="rat lung membrane SMBS" answer_label=1
compound="CNC(=O)NCCn1c(-c2ccc(C(=O)N3CCOCC3)cc2)cs/c1=N\\c1cccc(F)c1 [Example 52]" tested_system="rat lung membrane SMBS" answer_label=0
compound="CNC(=O)NCCn1c(-c2ccc(CN3CCOCC3)c(OC)c2)cs/c1=N\\c1ccc(F)c(C)c1 [Example 21]" tested_system="rat lung membrane SMBS" answer_label=1

###

Property: melting point

compound="CCNC(=O)NCCn1c(-c2ccc(C(=O)N3CCOCC3)cc2)cs/c1=N\\c1cccc(Cl)c1 [Example 56]" result="182 to 186 °C"
compound=CCNC(=O)NCCn1c(-c2ccc(C(=O)N3CCOCC3)cc2)cs/c1=N\c1ccc(F)cc1F result="179 to 180 °C"
compound=CNC(=O)NCCn1c(-c2ccc(CN3CCOCC3)cc2C)cs/c1=N\c1ccc(F)cc1C result="122 to 125 °C"
compound=CNC(=O)NCCn1c(-c2ccc(CCN3CCOCC3)cc2)cs/c1=N\c1ccc(F)cc1F result="166 to 172 °C"
compound=CNC(=O)NCCn1c(-c2ccc(CN3CCOCC3)cc2C)cs/c1=N\c1ccc(C)c(F)c1 result="171 to 174 °C"
compound=CNC(=O)NCCn1c(-c2ccc(CN3CCOCC3)cc2C)cs/c1=N\c1cccc(F)c1 result="119 to 121 °C"
compound=CNC(=O)NCCn1c(-c2ccc(CCN3CCOCC3)cc2)cs/c1=N\c1cccc(F)c1 result="154 to 160 °C"
compound=CNC(=O)NCCn1c(-c2ccc(CN3CCOCC3)cc2OC)cs/c1=N\c1cccc(F)c1 result="163 to 166 °C"
compound=CNC(=O)NCCn1c(-c2ccc(CN3CCOCC3)c(OC)c2)cs/c1=N\c1cccc(F)c1 result="170 to 174 °C"
compound=CNC(=O)NCCn1c(-c2ccc(CCN3CCOCC3)cc2)cs/c1=N\c1cccc(F)c1F result="155 to 164 °C"
compound=CCNC(=O)NCCn1c(-c2ccc(C(=O)N3CCOCC3)cc2)cs/c1=N\c1ccc(C)c(F)c1 result="175 to 178 °C"
compound=CNC(=O)NCCn1c(-c2ccc(CN3CCOCC3)cc2OC)cs/c1=N\c1ccc(C)c(F)c1 result="144 to 150 °C"
